# TGI annotations
Tested on: SK-MEL-28 melanoma
Assay: NCI tumour cell line growth inhibition, 48 h

Below: 5 compounds and their reported TGI.
[N-]=[N+]=NC1C(Br)C(=O)NC(=O)N1[C@H]1C[C@H](O)[C@@H](CO)O1 (stereo partly drawn)
> 100 µM
COC(=O)[C@H](Cc1ccccc1)NC(=O)N1CCN(C(=O)N[C@@H](Cc2ccccc2)C(=O)OC)CCN(C(=O)N[C@@H](Cc2ccccc2)C(=O)OC)CC1
> 100 µM
C=CCOCn1ccc(=O)[nH]c1=O
> 100 µM
O=P(O)(Cc1ccccc1)OCC1(O)OCC(O)C(O)C1O (stereo not drawn)
> 10 µM
O=S1(=O)CCN(Cc2ccccc2)/C1=N\S(=O)(=O)c1ccc(Cl)cc1
32.8 µM

get_value(item= COc1cc(/C=C/C(=O)c2ccc(Cl)cc2)ccc1OS(=O)(=O)c1ccc(C)cc1 , readout=TGI) returns 47.5 µM

get_value(item= c1ccc(N=C2c3ccccc3C3=NCCCN32)cc1 , readout=TGI) returns > 100 µM

get_value(item= S=C(Nc1cccc(Cl)c1)Nc1ccccn1 , readout=TGI) returns > 100 µM
